The origin of these recorded values is patent US20250136552A1.

# TESTED ON: Cav2.3 dependent current in HEK-293 T-Rex/Kir2.1/Cav2.3e-β4-α2δ1 cells (Homo sapiens)
# Sequence (Q15878 1-2270 isoform Q15878-3): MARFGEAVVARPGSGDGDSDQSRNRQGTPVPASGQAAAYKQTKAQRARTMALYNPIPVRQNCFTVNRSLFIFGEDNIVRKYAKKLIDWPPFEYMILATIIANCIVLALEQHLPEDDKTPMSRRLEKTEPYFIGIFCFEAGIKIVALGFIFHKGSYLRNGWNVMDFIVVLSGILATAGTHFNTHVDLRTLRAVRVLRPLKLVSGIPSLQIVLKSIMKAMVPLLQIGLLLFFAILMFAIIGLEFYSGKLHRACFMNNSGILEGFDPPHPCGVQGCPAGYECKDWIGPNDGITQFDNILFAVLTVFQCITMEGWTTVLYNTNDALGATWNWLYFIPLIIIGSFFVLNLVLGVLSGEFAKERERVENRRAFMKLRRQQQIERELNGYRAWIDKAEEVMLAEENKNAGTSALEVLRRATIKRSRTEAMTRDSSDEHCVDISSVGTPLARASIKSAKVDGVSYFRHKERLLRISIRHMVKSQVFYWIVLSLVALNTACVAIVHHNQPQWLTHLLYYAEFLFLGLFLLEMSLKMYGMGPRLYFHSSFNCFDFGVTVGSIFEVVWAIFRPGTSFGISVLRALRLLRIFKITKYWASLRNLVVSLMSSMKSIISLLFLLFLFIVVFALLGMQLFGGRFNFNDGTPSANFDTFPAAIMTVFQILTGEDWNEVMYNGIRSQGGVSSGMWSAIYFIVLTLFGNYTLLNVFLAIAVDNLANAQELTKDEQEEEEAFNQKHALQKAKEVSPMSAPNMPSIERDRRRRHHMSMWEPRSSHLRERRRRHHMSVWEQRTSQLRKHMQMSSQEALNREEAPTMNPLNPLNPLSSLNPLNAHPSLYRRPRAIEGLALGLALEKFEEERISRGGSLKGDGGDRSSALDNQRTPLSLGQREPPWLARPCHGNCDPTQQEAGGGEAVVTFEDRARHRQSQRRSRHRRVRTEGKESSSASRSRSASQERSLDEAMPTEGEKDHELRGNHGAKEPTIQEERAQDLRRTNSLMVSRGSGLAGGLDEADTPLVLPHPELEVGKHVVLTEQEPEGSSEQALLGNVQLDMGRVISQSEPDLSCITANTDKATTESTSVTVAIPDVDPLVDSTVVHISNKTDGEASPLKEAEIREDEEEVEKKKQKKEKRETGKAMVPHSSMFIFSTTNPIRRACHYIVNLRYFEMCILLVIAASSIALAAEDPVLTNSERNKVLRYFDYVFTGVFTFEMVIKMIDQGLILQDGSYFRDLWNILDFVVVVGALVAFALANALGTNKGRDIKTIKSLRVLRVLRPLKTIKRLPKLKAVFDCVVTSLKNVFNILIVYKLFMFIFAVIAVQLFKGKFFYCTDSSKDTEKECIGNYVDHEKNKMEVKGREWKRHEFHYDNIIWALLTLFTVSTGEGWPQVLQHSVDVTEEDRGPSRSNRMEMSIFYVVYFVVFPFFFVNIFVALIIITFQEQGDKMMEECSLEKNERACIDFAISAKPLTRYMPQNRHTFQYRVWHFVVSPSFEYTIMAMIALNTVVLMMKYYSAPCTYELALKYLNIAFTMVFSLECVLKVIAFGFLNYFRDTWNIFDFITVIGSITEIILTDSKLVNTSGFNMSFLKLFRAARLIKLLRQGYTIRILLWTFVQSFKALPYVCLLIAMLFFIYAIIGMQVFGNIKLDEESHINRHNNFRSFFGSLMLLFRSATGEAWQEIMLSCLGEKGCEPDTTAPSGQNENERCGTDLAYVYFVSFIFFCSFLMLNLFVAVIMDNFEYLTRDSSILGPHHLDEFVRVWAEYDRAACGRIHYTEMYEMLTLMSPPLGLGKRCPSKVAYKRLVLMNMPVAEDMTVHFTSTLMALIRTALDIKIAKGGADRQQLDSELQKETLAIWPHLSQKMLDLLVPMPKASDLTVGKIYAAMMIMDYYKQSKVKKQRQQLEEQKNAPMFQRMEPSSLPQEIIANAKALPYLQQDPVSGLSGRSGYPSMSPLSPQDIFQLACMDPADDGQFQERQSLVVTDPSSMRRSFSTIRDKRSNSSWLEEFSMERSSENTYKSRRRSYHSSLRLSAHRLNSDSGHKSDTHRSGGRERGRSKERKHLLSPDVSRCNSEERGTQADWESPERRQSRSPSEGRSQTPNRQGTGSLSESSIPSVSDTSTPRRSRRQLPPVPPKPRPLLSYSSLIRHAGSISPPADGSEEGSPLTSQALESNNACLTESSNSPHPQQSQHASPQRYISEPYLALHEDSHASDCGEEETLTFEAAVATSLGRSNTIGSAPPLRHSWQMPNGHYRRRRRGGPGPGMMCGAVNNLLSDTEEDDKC
# METHOD NOTES: Whole-cell patch clamp assay (QPatch 16X)
# Format: cell-based
# ASSAY CONDITIONS: whole-cell voltage clamp, room temperature, inward current density; mean ± S.E; read-out: Cav2.3 (pIC50) (converted)
MEASURED ATTRIBUTE: IC50 (nM)
Report only the number, with the unit nM understood.

// worked examples, IC50 included
CCN([C@@H](C)c1ccc(F)cc1)S(=O)(=O)c1ccc2c(c1)CN(C(=O)C(C)C)CC2 [Example 12]    93.3
CCN([C@@H](C)c1ccc(C(F)(F)F)cc1)S(=O)(=O)c1ccc2c(c1)CN(C(=O)C(C)C)CC2 [Example 1]    251
CC(C)C(=O)N1CCc2ccc(S(=O)(=O)N(C)[C@H](c3ccc(F)cc3)C(F)(F)F)cc2C1 [Example 9]    525
CCN([C@@H](C)c1ccc(C(F)(F)F)cc1)S(=O)(=O)c1ccc2c(c1)CCN(C(=O)C(C)C)C2 [Example 20]    372

Observed IC50 on Cav2.3 dependent current in HEK-293 T-Rex/Kir2.1/Cav2.3e-β4-α2δ1 cells (Homo sapiens) for CC(C)C(=O)N1CCc2ccc(S(=O)(=O)N(CCF)C(c3ccc(F)cc3)C(F)(F)F)cc2C1 (stereo not shown) [Example 49] , please.
204

Enter reported IC50 observed with Cav2.3 dependent current in HEK-293 T-Rex/Kir2.1/Cav2.3e-β4-α2δ1 cells (Homo sapiens) for CCN([C@H](c1ccc(F)cc1)C(F)(F)F)S(=O)(=O)c1ccc2c(c1)CN(C(=O)C(C)C)CC2 (stereo in doubt) [Example 6]
87.1

# query: IC50 | item CCN([C@@H](C)c1ccccc1)S(=O)(=O)c1ccc2c(c1)CN(C(=O)C1CC1)CC2 [Example 14] | system: Cav2.3 dependent current in HEK-293 T-Rex/Kir2.1/Cav2.3e-β4-α2δ1 cells (Homo sapiens)
1120

###

# TESTED ON: Cav2.3 (Homo sapiens)
# METHOD NOTES: Human Cav2.3 channel calcium-influx assay
# Assay type: cell-based
# ASSAY CONDITIONS: HEK-293 T-Rex/Kir2.1 cells with inducible Cav2.3e-β4-α2δ1; Fluo8 fluorescence; 8-point dose response from 30 μM; no pluronic acid; read-out: Cav2.3 (pIC50) (converted)
MEASURED ATTRIBUTE: IC50 (µM)
Kindly provide the numeric value in µM only, without the unit symbol.

Before answering, review these 8 worked examples.
CCN([C@@H](C)c1ccc(F)cc1)S(=O)(=O)c1ccc2c(c1)CN(C(=O)C1CC1)CC2    0.912
CC(C)C(=O)N1CCc2ccc(S(=O)(=O)N(CCF)[C@H](c3ccc(F)cc3)C(F)(F)F)cc2C1    0.417
CCN(C(c1ccc(F)cc1)C(F)(F)F)S(=O)(=O)c1ccc2c(c1)CN(C1COC1)CC2 (stereo not shown)    0.525
CC(C)C(=O)N1CCc2cc(S(=O)(=O)N(C)C3(c4ccc(F)cc4)COC3)ccc2C1    9.12
CCN([C@@H](C)c1ccc(F)cc1)S(=O)(=O)c1ccc2c(n1)CCN(C(=O)C1CC1)C2    3.63
CC(C)C(=O)N1CCc2ccc(S(=O)(=O)N(CCF)[C@@H](c3ccc(F)cc3)C(F)(F)F)cc2C1    3.31
CCN([C@@H](C)c1ccc(F)cc1)S(=O)(=O)c1ccc2c(c1)CN(C(=O)C(C)(C)F)CC2    0.575
CC(C)N1CCc2cc(S(=O)(=O)N(C)[C@@H](C)c3ccccc3)ccc2C1=O    6.46

Any idea what IC50 came out for `CC(C)C(=O)N1CCCc2cc(S(=O)(=O)N(C)[C@@H](C)c3ccccc3)ccc2C1` on Cav2.3 (Homo sapiens)?
3.16

Please provide the recorded IC50 for `C[C@@H](c1ccccc1)N(C)S(=O)(=O)c1ccc2c(c1)CN(C(=O)C(F)(F)F)CC2` , tested on Cav2.3 (Homo sapiens).
2.04

// fetch Cav2.3 (Homo sapiens) IC50 for `CCN([C@@H](C)c1ccccc1)S(=O)(=O)c1ccc2c(c1)CCN(C(=O)C(C)C)C2`
1.45

Test system Cav2.3 (Homo sapiens); read-out IC50; what value for `CCN([C@@H](C)c1ccc(F)cc1)S(=O)(=O)c1cnc2c(c1)CCN(C(=O)C1CC1)C2` ?
2.29

Can you look up IC50 on Cav2.3 (Homo sapiens) for `CC(C)C(=O)N1Cc2ccc(S(=O)(=O)N(C)[C@@H](C)c3ccccc3)cc2C1` ?
2.88

###

Reported IC50 values for a set of molecules
# TESTED ON: Cav2.3 (Homo sapiens)
# METHOD NOTES: Human Cav2.3 channel calcium-influx assay
# Assay type: cell-based
# ASSAY CONDITIONS: HEK-293 T-Rex/Kir2.1 cells with inducible Cav2.3e-β4-α2δ1; Fluo8 fluorescence; 8-point dose response from 30 μM; no pluronic acid; read-out: Cav2.3 (pIC50) (converted)
A number alone suffices; assume nM.

CCN([C@@H](C)c1ccc(F)cc1)S(=O)(=O)c1cc2c(cn1)CN(C(=O)C1CC1)CC2 [Example 34]    3020

Please provide the recorded IC50 for CCN([C@@H](C)c1ccc(C(F)(F)F)cc1)S(=O)(=O)c1ccc2c(c1)CN(C(=O)C(C)C)CC2 [Example 1] , tested on Cav2.3 (Homo sapiens).
661

Lab note: need IC50 for CCN(C(c1ccc(F)cc1)C(F)(F)F)S(=O)(=O)c1ccc2c(c1)CN(C(=O)C(C)C)CC2 (stereo not shown) [Example 5] on Cav2.3 (Homo sapiens), anyone have it?
437

Hi! What's the reported IC50 for CCN([C@@H](c1ccc(F)cc1)C(F)(F)F)S(=O)(=O)c1ccc2c(c1)CN(C(=O)C1CC1)CC2 [Example 47] on Cav2.3 (Homo sapiens)?
4570

###

# TESTED ON: Cav2.3 (Homo sapiens, UniProt Q15878)
# Sequence (Q15878 1-2270 isoform Q15878-3): as above
# METHOD NOTES: Human Cav2.3 channel calcium-influx assay
# Type: cell-based
# ASSAY CONDITIONS: HEK-293 T-Rex/Kir2.1 cells with inducible Cav2.3e-β4-α2δ1; Fluo8 fluorescence; 8-point dose response from 30 μM; no pluronic acid; read-out: Cav2.3 (pIC50) (converted)
# label = condition met if IC50 < 2 µM else condition not met

Examples from the recorded data:
CCN(C1(c2ccc(F)cc2)COC1)S(=O)(=O)c1ccc2c(c1)CCN(C(=O)C(C)C)C2 [Example 30]    condition not met
CCN([C@H](c1ccc(F)cc1)C(F)(F)F)S(=O)(=O)c1ccc2c(c1)CN(C(=O)C(C)(C)F)CC2 [Example 41]    condition met
C[C@@H](c1ccccc1)N(C)S(=O)(=O)c1ccc2c(c1)CN(c1ccncc1)CC2 [Example 3]    condition not met
CC(C)C(=O)N1CCc2ccc(S(=O)(=O)N(C)C(c3ccc(F)cc3)C(F)(F)F)cc2C1 (stereo not drawn) [Example 8]    condition met
CC(C)C(=O)N1CCc2ccc(S(=O)(=O)NCC(C)c3ccc(F)cc3)cc2C1 (single isomer, unassigned) [Example 17]    condition not met
CCN([C@H](c1ccc(F)cc1)C(F)(F)F)S(=O)(=O)c1ccc2c(c1)CN(C(=O)C1CC1)CC2 [Example 48]    condition met
C[C@@H](c1ccccc1)N(C)S(=O)(=O)c1ccc2c(c1)CN(C(=O)C1CC1)CC2 [Example 16]    condition met
CCN(C(c1ccc(F)cc1)C(F)(F)F)S(=O)(=O)c1ccc2c(c1)CN(C(=O)C1CC1)CC2 (stereo not drawn) [Example 46]    condition met

Hi there! Is IC50 for CCN([C@@H](c1ccc(F)cc1)C(F)(F)F)S(=O)(=O)c1ccc2c(c1)CN(C(=O)C(C)(C)F)CC2 [Example 42] below 2 µM, do you know?
condition not met

Lab note: IC50 threshold 2 µM. Does this molecule come in strictly under it? CCN([C@@H](C)c1ccc(F)cc1)S(=O)(=O)c1ccc2c(c1)C(C)(C)CN(C(=O)C1CC1)C2 [Example 23]
condition not met

Hi there! Is IC50 for CC(C)C(=O)N1CCc2ccc(S(=O)(=O)N(C)C3(c4ccc(F)cc4)COC3)cc2C1 [Example 29] below 2 µM, do you know?
condition not met

Hello, I'm reviewing records and need to know if IC50 of CC(C)C(=O)N1CCc2ccc(S(=O)(=O)N(C)[C@@H](C)c3ccccc3)cc2C1 [Example 15] is below 2 µM. Could you check?
condition met

###

Recorded IC50, one value per entry.
# TESTED ON: UniProtKB Q15878
# METHOD NOTES: Human Cav2.3 channel calcium-influx assay
# Assay type: cell-based
# ASSAY CONDITIONS: HEK-293 T-Rex/Kir2.1 cells with inducible Cav2.3e-β4-α2δ1; Fluo8 fluorescence; 8-point dose response from 30 μM; no pluronic acid; read-out: Cav2.3 (pIC50) (converted)
# number only, unit nM dropped from output

Please review the following examples before continuing.
C[C@@H](c1ccccc1)N(C)S(=O)(=O)c1ccc2c(c1)CCN(C)C2=O    6610
CC(C)C(=O)N1CCc2ccc(S(=O)(=O)N(C)[C@@H](C)c3ccccc3)cc2CC1    1950
CCN(C1(c2ccc(F)cc2)COC1)S(=O)(=O)c1ccc2c(c1)CN(C(=O)C(C)C)CC2    3800

Now consider a different compound.
Which IC50 is listed for `CCN([C@@H](C)c1ccc(F)cc1)S(=O)(=O)c1cc(F)c2c(c1)CCN(C(=O)C1CC1)C2` ?
955
